Target: human histamine H4 receptor (Homo sapiens, UniProt Q9H3N8)
Construct: cell membranes
Sequence (Q9H3N8 whole entry): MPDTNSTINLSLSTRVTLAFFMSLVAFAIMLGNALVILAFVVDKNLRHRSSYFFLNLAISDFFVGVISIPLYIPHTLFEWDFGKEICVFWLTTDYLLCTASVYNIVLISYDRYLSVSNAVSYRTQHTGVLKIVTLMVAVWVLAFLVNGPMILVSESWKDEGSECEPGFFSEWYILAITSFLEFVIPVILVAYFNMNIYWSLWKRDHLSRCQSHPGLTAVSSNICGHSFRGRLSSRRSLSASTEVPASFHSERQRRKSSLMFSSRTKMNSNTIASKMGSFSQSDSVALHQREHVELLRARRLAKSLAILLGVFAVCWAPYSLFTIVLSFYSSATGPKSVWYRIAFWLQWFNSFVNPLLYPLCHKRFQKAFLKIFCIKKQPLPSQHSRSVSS
Assay: Binding Assay on Recombinant Human Histamine H4 Receptor
Details: competition binding with 3H-histamine (5 nM; KD 5 nM), membranes of SK-N-MC or COS7 cells expressing human H4 receptor; average of results; > = highest value tested
pKi: −log10 of the molar value.
# binarize pKi: threshold 6 inclusive, high side Criterion met, low side Criterion not met

CN1CCC(CCCCn2ccc3c(-c4nc5cc(Cl)ccc5[nH]4)cccc32)CC1 : Criterion met
Cc1cc(C)c2nc(-c3ccc4c(c3C)CCN4CCCC3CCN(C)CC3)[nH]c2c1 : Criterion met
Cc1cc(Cl)cc2[nH]c(-c3cccc4c3ccn4CCCCC3CCN(C)CC3)nc12 : Criterion met
c1ccc2cc3[nH]c(-c4cccc5c4ccn5CCCCC4CCNCC4)nc3cc2c1 : Criterion not met
CN1CCC(CCCCn2ccc3c(-c4nc5cc(C(=O)c6ccccc6)ccc5[nH]4)cccc32)CC1 : Criterion met
Cc1cccc2[nH]c(-c3ccc4c(c3)CCN4CCCC3CCNCC3)nc12 : Criterion met
Cc1c(F)ccc2[nH]c(-c3ccc4c(c3)c(Cl)cn4CCCC3CCN(C)CC3)nc12 : Criterion not met
Fc1ccc2[nH]c(-c3cccc4c3ccn4CCCCC3CCNCC3)nc2c1F : Criterion not met
Cc1c(F)ccc2[nH]c(-c3ccc4c(c3)CCN4CCCC3CCN(C)CC3)nc12 : Criterion met
CN1CCC(CCCN2CCc3cc(-c4nc5cc(Cl)ccc5[nH]4)ccc32)CC1 : Criterion met
COC(=O)c1ccc2nc(-c3cccc4c3c(Cl)cn4CCCCC3CCN(C)CC3)[nH]c2c1 : Criterion not met
CN1CCC(CCCCn2cnc3ccc(-c4nc5cc(F)ccc5[nH]4)cc32)CC1 : Criterion not met
Cc1c(F)ccc2[nH]c(-c3ccc4c(c3)c(CN(C)C)cn4CCCC3CCN(C)CC3)nc12 : Criterion not met
CN1CCC(CCCCn2ccc3c(-c4nc5cc(C(C)(C)C)ccc5[nH]4)cccc32)CC1 : Criterion met
CN1CCC(CCCCn2cnc3cc(-c4nc5cc(F)ccc5[nH]4)ccc32)CC1 : Criterion not met

---

Target: human histamine H4 receptor (Homo sapiens)
Construct: cell membranes
Assay: Binding Assay on Recombinant Human Histamine H4 Receptor
Conditions: competition binding with 3H-histamine (5 nM; KD 5 nM), membranes of SK-N-MC or COS7 cells expressing human H4 receptor; average of results; > = highest value tested
Property label: Ki (µM)

Cc1c(F)ccc2[nH]c(-c3cccc4c3ccn4CCCCC3CCNCC3)nc12 [Example 35] : 0.683
CN1CCC(CCCCn2ccc3c(-c4nc5cc(F)ccc5[nH]4)cccc32)CC1 [Example 69] : 0.325
Cc1ccc(-c2nc(-c3ccc4c(ncn4CCCC4CCN(C)CC4)c3C)[nH]c2-c2ccc(Cl)cc2)cc1 [Example 85] : 0.005
Fc1ccc2[nH]c(-c3cccc4c3c(Cl)cn4CCCCC3CCNCC3)nc2c1F [Example 132] : 3.33
CN1CCC(CCCn2ccc3cc(-c4nc5c(F)cc(F)cc5[nH]4)c(Cl)cc32)CC1 [Example 48] : 1.03
Cc1c(F)ccc2[nH]c(-c3ccc4c(c3)CCN4CCCC3CCNCC3)nc12 [Example 93] : 1.1
CN1CCC(CCCCn2cc(Cl)c3c(-c4nc5cc(F)c(F)cc5[nH]4)cccc32)CC1 [Example 32] : 0.599
Fc1cc(F)c2nc(-c3cc4ccn(CCCC5CCNCC5)c4cc3Cl)[nH]c2c1 [Example 99] : 2.67
